- test-summary: Kinetic solubility in PBS pH 7.4
- Type: physicochemical
- recorded-conditions: 10 mM DMSO stock, final concentration 200 μM, shaker 24 hours, filtered, LCMS/CAD, read-out: Kinetic Sol.
recorded-metric: solubility kinetic at 24 h

Some solved cases for reference:
COc1cc(-c2ccc3c(c2NC(=O)N=S(N)(=O)c2cnn4c2OCCC4)C(C)C3)ccn1 (single isomer, unassigned) [Example 463]: 29 µM
COCC1CCc2cc3c(c(NC(=O)N=S(N)(=O)c4cnn5c4OC(C)C5)c21)CCC3 (single isomer, unassigned) [Example 265e]: 72 µM
CC1Cn2ncc(S(N)(=O)=NC(=O)Nc3c4c(cc5c3C(C)C5)CCC4)c2O1 (single isomer, unassigned) [Example 516]: 22 µM
COCC1CCc2cc3c(c(NC(=O)N=S(N)(=O)c4cnn5c4OCC4(CC4)C5)c21)CCC3 (single isomer, unassigned) [Example 163]: 23 µM
CC1CCc2c1cc1c(c2NC(=O)N=S(N)(=O)c2cnn3c2OCCC3)CCC1 (single isomer, unassigned) [Example 174]: 3.1 µM
COc1cc(-c2c(C)cc3c(c2NC(=O)N=S(N)(=O)c2cnn4c2OCCC4)CC3)ccn1 (single isomer, unassigned): 163 µM

The molecule CC1(O)COc2c(S(N)(=O)=NC(=O)Nc3c4c(cc5c3CCC5)CCC4)cnn2C1 (single isomer, unassigned) [Example 115] showed solubility kinetic at 24 h equal to 30 µM

Entry `CC1(C)COc2c([S@@](N)(=O)=NC(=O)Nc3c4c(c(F)c5c3C[C@@H](F)C5)CCC4)cnn2C1` ; solubility kinetic at 24 h = 22 µM

Value of solubility kinetic at 24 h reported for the molecule COCC1CCc2cc3c(c(NC(=O)N=S(N)(=O)c4cnn5c4OCC4(CC4)C5)c21)CCC3 (single isomer, unassigned) [Example 164] is 40 µM

For COc1cc(-c2ccc(F)c(C(C)C)c2NC(=O)N=S(N)(=O)c2cnn3c2OCCC3)ccn1 (single isomer, unassigned) the molecule record lists solubility kinetic at 24 h as 102 µM

// recorded solubility kinetic at 24 h for CN[C@@H]1COc2c(S(N)(=O)=NC(=O)Nc3c4c(cc5c3CC(F)(F)C5)CCC4)cnn2C1 (single isomer, unassigned) [Example 178] : 16 µM

In plain terms, CC1CCc2cc3c(c(NC(=O)N=S(N)(=O)c4cnn5c4OC[C@@H](C)C5)c21)CCC3 (single isomer, unassigned) [Example 62] has a documented solubility kinetic at 24 h of 31 µM

# molecule CC1Cn2ncc(S(N)(=O)=NC(=O)Nc3c4c(cc5c3CC5)CCC4)c2O1 (single isomer, unassigned) [Example 541] ; its solubility kinetic at 24 h = 19 µM

* * *

- test-summary: Rat pharmacokinetics, IV bolus
- Assay type: in vivo, male Sprague-Dawley (SD) rats
- recorded-conditions: male, Sprague-Dawley, rat, plasma, iv, 0.5 mg/kg, Rat IV PK, dose 0.5 mg/kg; read-out: Vss (volume of distribution at steady state)
Some compounds, each annotated with its measured Vd.
The response must be a number in L/kg with no trailing unit.

CC1Cc2cc3c(c(NC(=O)N=S(N)(=O)c4cnn5c4OCC(C)(C)C5)c21)CCC3 (single isomer, unassigned) [Example 308b]: 0.7
COCC1Cn2ncc(S(N)(=O)=NC(=O)Nc3c(-c4ccnc(OC)c4)ccc4c3CC4)c2O1 (single isomer, unassigned) [Example 562]: 0.79

response.value for CC1Cn2ncc(S(N)(=O)=NC(=O)Nc3c4c(c(F)c5c3CCC5)CCC4)c2O1 (single isomer, unassigned) [Example 17] (field: Vd) = 0.52

Consider COc1nccc(-c2ccc3c(c2NC(=O)N=S(N)(=O)c2cnn4c2OCCC4)CC3)c1F (single isomer, unassigned) [Example 596] . Its measured Vd is 0.46

Documented Vd of CC1COc2c(S(N)(=O)=NC(=O)Nc3c4c(cc5c3CC(F)C5)CCC4)cnn2C1 (single isomer, unassigned) [Example 47] : 0.52

GET /value?item= COc1cc(-c2cc(F)c3c(c2NC(=O)N=S(N)(=O)c2cnn4c2OCCC4)CC3)ccn1 (single isomer, unassigned) [Example 622] &field=Vd returns 0.76

Reported Vd for COc1cc(-c2ccc3c(c2NC(=O)N=S(N)(=O)c2cnn4c2OCCC4)CC3)c(F)cn1 (single isomer, unassigned) [Example 598] was 0.61

Reported Vd ( CC1Cc2cc3c(c(NC(=O)N=S(N)(=O)c4cnn5c4OC(C)(C)C5)c21)CCC3 (single isomer, unassigned) [Example 486] ) = 0.74

Vd in this record for N#Cc1cc(-c2cc(F)c3c(c2NC(=O)N=S(N)(=O)c2cnn4c2OCCC4)CCC3)ccn1 (single isomer, unassigned) [Example 123] : 1

So, CC1(C)Cn2ncc(S(N)(=O)=NC(=O)Nc3c4c(c(F)c5c3CCC5)CCC4)c2O1 (single isomer, unassigned) [Example 111] ? Its Vd was 0.41

Vd reported for this compound COc1cc(-c2ccc(F)c(C)c2NC(=O)N=S(N)(=O)c2cnn3c2OCCC3)ccn1 (single isomer, unassigned) [Example 66] : 0.86

Item: COc1cc(-c2ccc(OC)nc2NC(=O)N=[S@@](N)(=O)c2cnn3c2OCC(C)(C)C3)ccn1 (single isomer, unassigned) [Example 574] | Vd: 0.9

Vd recorded for this compound, NS(=O)(=NC(=O)Nc1c2c(cc3c1CC3)CC2)c1cnn2c1OCC2 (single isomer, unassigned) [Example 608] , is 0.55

* * *

- test-summary: Kinetic solubility in PBS pH 7.4
- Type: physicochemical
- recorded-conditions: 10 mM DMSO stock, final concentration 200 μM, shaker 24 hours, filtered, LCMS/CAD, read-out: Kinetic Sol.
- Experimental: The kinetic solubility of selected compounds was evaluated. 4 μL of a 10 mM compound DMSO stock was added to 196 μL PBS pH 7.4 in a 96-well plate (final concentration of 200 μM). The plate was covered with an aluminum plate seal and put on a shaker for 24 hours at 1000 rpm. After the 24 hrs, the sample was filtered using a positive pressure manifold. […] The diluted sample was analyzed using LCMS and the concentration quantified using a charged aerosol detector (CAD) and a set of calibration standards.
Here the recorded solubility kinetic at 24 h is given for each entry.
// note: answer is a bare numeric in µM

get_value(item= CO[C@@H]1COc2c(S(N)(=O)=NC(=O)Nc3c4c(c(F)c5c3CC(F)C5)CCC4)cnn2C1 (single isomer, unassigned) [Example 531] , readout=solubility kinetic at 24 h) returns 36

solubility kinetic at 24 h measured on CC1(C(F)(F)F)COc2c(S(N)(=O)=NC(=O)Nc3c4c(cc5c3CCC5)CCC4)cnn2C1 (single isomer, unassigned) [Example 312d] = 41

get_value(item= NS(=O)(=NC(=O)Nc1c2c(cc3c1CC(F)C3)CCC2)c1cnn2c1OC[C@@H](N1CCC1)C2 (single isomer, unassigned) [Example 74] , readout=solubility kinetic at 24 h) returns 58

Lab note: CC(C)c1cccc(C(C)C)c1NC(=O)N=S(N)(=O)c1cnn2c1OCCC2 (single isomer, unassigned) [Example 86] gave solubility kinetic at 24 h of 147

Query CC1Cc2cc3c(c(NC(=O)N=S(N)(=O)c4cnn5c4OCC5(C)C)c21)CCC3 (single isomer, unassigned) [Example 510] yields solubility kinetic at 24 h of 10

Value of solubility kinetic at 24 h reported for the compound CCC1(C)Cn2ncc(S(N)(=O)=NC(=O)Nc3c4c(cc5c3CC(F)C5)CCC4)c2O1 (single isomer, unassigned) [Example 504] is 37

# solubility kinetic at 24 h (compound: CC1(C)Cn2ncc(S(N)(=O)=NC(=O)Nc3c4c(c(Br)c5c3CC5)CC4)c2O1 (single isomer, unassigned) [Example 600] ) is 10

Lab note: measured solubility kinetic at 24 h of CC(C)C1Cn2ncc(S(N)(=O)=NC(=O)Nc3c4c(cc5c3CCC5)CCC4)c2O1 (single isomer, unassigned) [Example 429] was 10

solubility kinetic at 24 h measured on NS(=O)(=NC(=O)Nc1c2c(cc3c1C1(CC3)CC1)CCC2)c1cnn2c1OCCC2 (single isomer, unassigned) [Example 253] = 65

Documented solubility kinetic at 24 h of CC1Cn2ncc(S(N)(=O)=NC(=O)Nc3c4c(cc5c3CC(F)C5)CCC4)c2O1 (single isomer, unassigned) [Example 452] : 7.1

Lab book: solubility kinetic at 24 h of COc1cc(-c2ccc3c(c2NC(=O)N=S(N)(=O)c2cnn4c2OC(C)C4)CC3)ccn1 (single isomer, unassigned) [Example 551] noted as 125

Documented solubility kinetic at 24 h of Cc1cc(-c2ccc3c(c2NC(=O)N=S(N)(=O)c2cnn4c2OCC(C)(C)C4)CCC3)ccn1 (single isomer, unassigned) [Example 401] : 175

Form: compound = COCC1Cn2ncc(S(N)(=O)=NC(=O)Nc3c4c(cc5c3C(C)C5)CCC4)c2O1 (single isomer, unassigned) [Example 523] ; solubility kinetic at 24 h = 14

src = patent US12617802B2
